- Tested on: HOP-92 NSCLC
- Measurement Protocol: NCI tumour cell line growth inhibition, 48 h
So I've got a bunch of compounds here, and I need their TGI values.

Look at this compound and give its reported TGI. O=C(Nc1cccc2cccnc12)c1ccc(N2C(=O)[C@@H]3[C@H](C2=O)[C@@H]2C=C[C@H]3C2)cc1
> 94.3 µM

Please give the result for CCOC(=O)CC1=NC(=Nc2cc(Cl)ccc2Cl)SC1 too.
> 100 µM

Please give the result for COc1ccc(NC(=O)c2sc3nc(C)c(C(O)c4ccc(OC)cc4)cc3c2N)cc1 (stereo unspecified) too.
> 50 µM

Please give the result for COc1ccc(-c2c3c(n(C4OC(CO)C(O)C(O)C4O)c(=S)c2C#N)CC(C)(C)CC3=O)cc1 (stereo unspecified) too.
> 100 µM

Please give the result for Nc1nc(N)nc(-c2cnccn2)n1 too.
> 100 µM

Please give the result for Cc1nccc2c1cnc1ccnn12 too.
> 100 µM

Numbers sourced from PubChem BioAssay (NCI).
